System: KRas wild type
Assay: Ras GTP Binding Domain Inhibition Assay, KRas wild type
Conditions: at 20 μM; without SOS
measure: KRas wild type: % inh.

compound: COc1cc(Cn2c(-c3nccn3C)nc3sc(-c4ccn(C(C)C)n4)c(C)c3c2=O)ncn1 [Compound 35]
target system: KRas wild type
measure: KRas wild type: % inh.
result: A (A = 1-25% inhibition)
--
compound: COCCNc1nc(-c2nccn2C)nc2sc(-c3ccccc3)c(-c3ccccc3Cl)c12 [Compound 4]
target system: KRas wild type
measure: KRas wild type: % inh.
result: A (A = 1-25% inhibition)
--
compound: COCCCCOc1nc(-c2nccn2C)nc2sc(-c3ccn(C(C)C)n3)c(C)c12 [Compound 34]
target system: KRas wild type
measure: KRas wild type: % inh.
result: A (A = 1-25% inhibition)
--
compound: COC1CCN(c2nc(-c3nccn3C)nc3sc(-c4ccn(C)n4)c(-c4ccccc4)c23)CC1 [Compound 6]
target system: KRas wild type
measure: KRas wild type: % inh.
result: 0 (0 = 0% inhibition)

---

molecules and their reported KRas G12D mutant + SOS: % inh.
Tested on: KRas G12D mutant
Assay: Ras GTP Binding Domain Inhibition Assay, KRas G12D mutant
Conditions: at 20 μM; with SOS; Table 7

molecule: COCCOc1nc(-c2nccn2C)nc2sc(-c3ccn(C(C)C)n3)c(C)c12 [Compound 30]
measure: KRas G12D mutant + SOS: % inh.
result: 0 (0 = 0% inhibition)

molecule: COCCCn1c(-c2nccn2C)nc2sc(-c3ccn(C(C)C)n3)c(-c3ccccc3)c2c1=O [Compound 36]
measure: KRas G12D mutant + SOS: % inh.
result: 0 (0 = 0% inhibition)

Turning now to a further record.
I would be grateful if you could share the reported KRas G12D mutant + SOS: % inh. for COCCCOc1nc(-c2nccn2C)nc2sc(-c3ccn(C(C)C)n3)c(-c3ccccc3)c12 [Compound 37] .
0 (0 = 0% inhibition)

---

Tested on: Rho-A
Assay: Ras GTP Binding Domain Inhibition Assay, Rho-A
Details: at 20 μM; with SOS
Experimental: A Ras Superfamily Activity Assay (as disclosed in International Application No. PCT/US2018/038613, filed Jun. 20, 2018, which is incorporated by reference in its entirety) was used as a specific assay to evaluate compounds against the following for the following Ras Superfamily proteins: KRas wild type, KRas Q61H mutant, KRas G12C mutant, KRas G12D mutant, Rac-1, and Rho-A. Buffer-I: • 25 mM Tris-HCl, pH 7.4 • 27 mM KCl • 137 mM NaCl • 1 mM MgCl2 • 1 mM DTT […]
measure: Rho-A + SOS: % inh.

Reported Rho-A + SOS: % inh. for COC1CCN(c2nc(-c3nccn3C)nc3sc(-c4ccn(C)n4)c(-c4ccccc4)c23)CC1 [Compound 6] : what is it?
0 (0 = 0% inhibition)

---

Tested on: Rho-A
Experiment: Ras GTP Binding Domain Inhibition Assay, Rho-A
Settings: at 20 μM; without SOS
measure: Rho-A: % inh.

Form entry - test system: Rho-A; read-out: Rho-A: % inh.; compound: COCCCn1c(-c2nccn2C)nc2sc(-c3ccn(C(C)C)n3)c(C)c2c1=O
0 (0 = 0% inhibition)
